The reported measurements were obtained from patent US20220281997A1.

- MEASURED ON: T1, AS325 VHH (camel-derived)
- T1 construct: One of the 10 different camel-derived nanobodies; not shown: His tag (VHH-His)
- MEASUREMENT NOTES: indirect ELISA, VHH coated
MEASURED PROPERTY: binding result

>  <BINDER>
R166.E5 (antibody, V domains shown, Rabbit monoclonal; also called clone R166.E5) VH: QSLEESGGRLVTPGTPLTLTCTASGFSLSGYYMIWVRQAPGKGLEYIGIVTSSGSTHYASWANGRFAISKTSSTTVDLKMPSLTTEDTATYFCAREGGWAFDLWGQGTLVTVSS VL: QVLTQTPFSVSTAVGGTVTINCQSSESVANSNWLSWYQQKPGQPPKLLIYWASKLASGVPSRFSGSGSGTQFTLTISGVQCADAATYYCQGGYTSDRRAFGGGTEVVVKG

>  <READING>
binds

$$$$
>  <BINDER>
R166.G3 (antibody, V domains shown, Rabbit monoclonal; also called clone R166.G3) VH: QSVEESGGRLVTPGTPLTLTCTVSGIDLSRYAMGWVRQAPGKGLEYIGIIGYGGNTNYANWAKGRFTISKTSSTTVDLKMTSPTTEDTATYFCARDNKSGGNNGYPYYGLDLWGPGTLVTVSS VL: AYDMTQTPASVEVPVGGTVTINCQASQSISSHLAWYQQKRGQPPKVLIYYASTLASGVSSRFKGSGSGTEYTLTISGVECADAATYFCHQSYSGSDVDNTFGGGTEVVVRG

>  <READING>
binds

$$$$
>  <BINDER>
R166.H9 (antibody, V domains shown, Rabbit monoclonal; also called clone R166.H9) VH: QSLEESGGRLVTPGTPLTLTCTASGFSLNNYNMIWVRQAPGEGLEWIGMIGDGDDAAWYASWAKGRFTISKTSTTVDLEVTSLTTEDTAIYFCARYLSFTRLDLWGQGTLVTVSS VL: AVLTQTPSPVSAAVGGTVTINCQSSQSVYHNNWLAWYQQKPGQPPKLLIYGAATLASGVPSRFKGSGSGTQFTFTITDVQCDDVGTYYCAGVYNDDSENAFGGGTEVVVKG

>  <READING>
binds

$$$$
